The values you see were collected from ChEMBL document CHEMBL3507680.

test: Human HepG2 cell viability assay in 384 well format; assay type: toxicity, cell-based; parameters: dose 125 nL, time 70.5 hour; concentration not given beside the values; settings: HepG2 cells, read-out: Inhibition
VALUE KIND: cytotoxicity at 70.5 h (%)
State just the number; it will be interpreted in %.

Recorded cytotoxicity at 70.5 h, per entry:
Value lookup for cytotoxicity at 70.5 h; key = `COc1ccc(C(=O)N2CCC(Oc3ccc(C)cc3)(C(=O)O)CC2)o1`
0.709

Value lookup for cytotoxicity at 70.5 h; key = `CC(C)(C)n1cc(C(=O)O)c(-c2ccc(F)cc2F)n1`
-18.2

Value lookup for cytotoxicity at 70.5 h; key = `CCOCCn1nc(C)cc1C(=O)N(C)Cc1cccc2ncccc12`
20.2

---
Value lookup for cytotoxicity at 70.5 h; key = `COc1ccc(Cn2c(=O)n(C)c(=O)c3sccc32)cc1`
3.39

Value lookup for cytotoxicity at 70.5 h; key = `O=S(=O)(c1c(N2CCCC2)ccc2nonc12)N1CCCC1`
-1.28

Value lookup for cytotoxicity at 70.5 h; key = `COCCN(Cc1coc(-c2cccc(Cl)c2)n1)C1CC1`
-4.43

Value lookup for cytotoxicity at 70.5 h; key = `O=C(C1CCCCC1)N1CCC2(CC1)OCCO2`
-5.09

Value lookup for cytotoxicity at 70.5 h; key = CC(C)CC(NS(C)(=O)=O)C(=O)N(C)Cc1nnc2n1CCC2 (stereo unspecified)
-8.38

Value lookup for cytotoxicity at 70.5 h; key = `O=C(c1ccnn1COc1ccc(Cl)cc1)N1CCCC1`
-1.93

Value lookup for cytotoxicity at 70.5 h; key = `O=C(NCCNc1ccc(C(F)(F)F)cn1)c1ccc(Br)cc1F`
17.1

Value lookup for cytotoxicity at 70.5 h; key = `CC(=O)N[C@@H]1CN(C(=O)c2cnccn2)C[C@H]1c1ccc(C)cc1`
-11.4

###

test: Human HepG2 cell viability assay in 384 well format; assay type: toxicity, cell-based; design: dose 125 nL, time 70.5 hour; concentration not given beside the values; conditions: HepG2 cells, read-out: Inhibition
VALUE KIND: cytotoxicity at 70.5 h (%)
State just the number; it will be interpreted in %.

Recorded cytotoxicity at 70.5 h, per entry:
Value lookup for cytotoxicity at 70.5 h; key = CCn1ncc2c1CCCC2NCc1cc(Cl)c(OC)c(OC)c1 (stereo unspecified)
27.8

Value lookup for cytotoxicity at 70.5 h; key = `CN1C[C@H]2N(c3ncccn3)CCC[C@@]2(C(=O)NCC2CC2)C1`
-6.84

Value lookup for cytotoxicity at 70.5 h; key = `CN(Cc1cccs1)c1nc2c(cnn2C(C)(C)C)c(=O)[nH]1`
-6.5

Value lookup for cytotoxicity at 70.5 h; key = `Cc1nnc([C@H]2CC[C@@H]3[C@@H](CCN3Cc3c(C)noc3C)O2)o1`
-5.84

Value lookup for cytotoxicity at 70.5 h; key = `Cc1csc(CN2CC[C@H]3C[C@@H](c4nc(C)no4)O[C@@H]3C2)n1`
-7.69

---
Value lookup for cytotoxicity at 70.5 h; key = `COc1ccc(NC(C)=O)cc1OCc1cccnc1`
29.5

Value lookup for cytotoxicity at 70.5 h; key = `Cc1cc(CC(=O)N(C)Cc2cccc(OC(C)C)c2)n[nH]1`
-9.38

Value lookup for cytotoxicity at 70.5 h; key = `CN(C)[C@@H]1CCN(C(=O)c2cccn2C)[C@H]1Cc1cnn(C)c1`
-11.3

Value lookup for cytotoxicity at 70.5 h; key = COc1ccc(C(O)CNC(=O)Cn2ccc(=O)n(C)c2=O)cc1 (stereo unspecified)
-5.99

Value lookup for cytotoxicity at 70.5 h; key = `COc1ccc(OCCN2CCC(N3CCNC3=O)CC2)cc1`
80.5

Value lookup for cytotoxicity at 70.5 h; key = `O=S(=O)(c1cccs1)N1Cc2nc(COCC3CC3)oc2C1`
-5.06

###

assay: Human HepG2 cell viability assay in 384 well format; format: toxicity, cell-based; design: dose 125 nL, time 70.5 hour; concentration not given beside the values; conditions: HepG2 cells, read-out: Inhibition
VALUE KIND: cytotoxicity at 70.5 h (%)
State just the number; it will be interpreted in %.

Recorded cytotoxicity at 70.5 h, per entry:
Value lookup for cytotoxicity at 70.5 h; key = `Cc1nnc(CN(C)CCOc2cccc(Cl)c2)o1`
-10.9

Value lookup for cytotoxicity at 70.5 h; key = COc1cc(C2SC(C)=Nc3c2c(=O)[nH]n3C2CCCC2)ccc1O (stereo unspecified)
-9.1

Value lookup for cytotoxicity at 70.5 h; key = `Cn1cc(CN2CCc3nc4ccccc4c(=O)n3CC2)cn1`
-1.93

Value lookup for cytotoxicity at 70.5 h; key = `COc1ccccc1NCc1cscn1`
-1.66

Value lookup for cytotoxicity at 70.5 h; key = Cn1cc(-c2nc(C(=O)N3CCCC3c3cnn(C)c3)cs2)cn1 (stereo unspecified)
-5.1

// switching to the query compound
Value lookup for cytotoxicity at 70.5 h; key = `Cc1cccc(N2CC[C@H]3[C@H](CO[C@@H]3CN(C)Cc3ccco3)C2)n1`
2.69

###

experiment: Human HepG2 cell viability assay in 384 well format; format: toxicity, cell-based; design: dose 125 nL, time 70.5 hour; concentration not given beside the values; conditions: HepG2 cells, read-out: Inhibition
Listed here: items and their measured cytotoxicity at 70.5 h.
State just the number; it will be interpreted in %.

Value lookup for cytotoxicity at 70.5 h; key = COc1ccc(CN2CCOC3(CCCN(C(C)=O)C3)C2)cc1 (stereo not drawn)
-1.06

Value lookup for cytotoxicity at 70.5 h; key = COc1ccc(Br)cc1CCC(=O)N1CCCC(O)C1 (stereo not drawn)
-5.19

Value lookup for cytotoxicity at 70.5 h; key = CN1CCCC1c1nccnc1-c1ccc(C(=O)O)cc1 (stereo not drawn)
11

###

assay: Human HepG2 cell viability assay in 384 well format; type: toxicity, cell-based; design: dose 125 nL, time 70.5 hour; concentration not given beside the values; conditions: HepG2 cells, read-out: Inhibition
Listed here: items and their measured cytotoxicity at 70.5 h.
State just the number; it will be interpreted in %.

Value lookup for cytotoxicity at 70.5 h; key = `CC(=O)N1CCC(C(=O)Nc2nc(C3CC3)cs2)CC1`
-4.64

// switching to the query compound
Value lookup for cytotoxicity at 70.5 h; key = `COC(=O)c1ccc(N2CCN(C(=O)c3ccn(C)c(=O)c3)CC2)cc1`
1.93

###

Listed here: items and their measured cytotoxicity at 70.5 h.
assay: Human HepG2 cell viability assay in 384 well format; type: toxicity, cell-based; set-up: dose 125 nL, time 70.5 hour; concentration not given beside the values; conditions: HepG2 cells, read-out: Inhibition
State just the number; it will be interpreted in %.

Recorded cytotoxicity at 70.5 h, per entry:
Value lookup for cytotoxicity at 70.5 h; key = CN(C)C1CCCN(C(=O)c2ccc3sc4c(c3c2)CCNC4=O)CC1 (stereo unspecified)
1.18

Value lookup for cytotoxicity at 70.5 h; key = Cc1cc(C)n(CC2CCCN2CC(=O)N(C)Cc2ccco2)n1 (stereo unspecified)
-8.36

Value lookup for cytotoxicity at 70.5 h; key = `Cc1noc(C)c1S(=O)(=O)N(C)Cc1nn(C)c(Cl)c1Cl`
24.3

Value lookup for cytotoxicity at 70.5 h; key = `CN(CC(F)(F)F)C(=O)COc1nc(Cc2ccc(F)cc2)no1`
-7.01

Value lookup for cytotoxicity at 70.5 h; key = `Cc1ccc(S(=O)(=O)NC(C)(C)CN)c(F)c1`
-1.04

---
Value lookup for cytotoxicity at 70.5 h; key = `Cc1nc(CN2C[C@@H]3CN(C(=O)c4ccoc4C)C[C@@H]3C2=O)cs1`
-10

Value lookup for cytotoxicity at 70.5 h; key = `c1csc(CN2CCc3nnc(COc4cncnc4)n3CC2)c1`
-6.3

Value lookup for cytotoxicity at 70.5 h; key = `Cc1nc(CNC(=O)Nc2ccc3c(c2)CCCN3C)sc1C`
-0.336

Value lookup for cytotoxicity at 70.5 h; key = c1ccn2cc(CN3CCCC(c4ccn[nH]4)C3)nc2c1 (stereo unspecified)
25.3

Value lookup for cytotoxicity at 70.5 h; key = CCc1nnc(C(C)N2CCN(CCC(C)(C)C)CC2)o1 (stereo unspecified)
-7.09

Value lookup for cytotoxicity at 70.5 h; key = `Cc1nc(CN2CCc3cncnc3C2)oc1C`
-5.69

###

test: Human HepG2 cell viability assay in 384 well format; format: toxicity, cell-based; design: dose 125 nL, time 70.5 hour; concentration not given beside the values; conditions: HepG2 cells, read-out: Inhibition
VALUE KIND: cytotoxicity at 70.5 h (%)
State just the number; it will be interpreted in %.

Recorded cytotoxicity at 70.5 h, per entry:
Value lookup for cytotoxicity at 70.5 h; key = `N#Cc1ccnc(N2CCC(c3nccn3Cc3cscn3)CC2)c1`
31.3

Value lookup for cytotoxicity at 70.5 h; key = `C1CCc2nnc(CNc3nc(C4CC4)nc4c3CCNCC4)n2CC1`
-5.38

Value lookup for cytotoxicity at 70.5 h; key = `N[C@@H]1CC[C@@H]1NC(=O)c1ccccc1OC(F)(F)C(F)F`
3.75

Value lookup for cytotoxicity at 70.5 h; key = `Cc1nc(-c2c(C)noc2C)cc(C2CCN(S(=O)(=O)N(C)C)CC2)n1`
-8.98

Value lookup for cytotoxicity at 70.5 h; key = `CCN(C(=O)CCCOc1ccccc1F)c1ccncc1`
1.58

Value lookup for cytotoxicity at 70.5 h; key = Cn1ccnc1CN(CCCO)C1CCCc2ccccc21 (centres undefined)
7.41

Value lookup for cytotoxicity at 70.5 h; key = CCOc1ccc(CN(C)C2CCN(c3cc(C)nn3C)C2=O)cc1 (centres undefined)
19.7

Value lookup for cytotoxicity at 70.5 h; key = COc1ccc(-n2ccc(C(=O)N3CCN(C)CC3C)n2)cc1 (centres undefined)
-5.83

---
Value lookup for cytotoxicity at 70.5 h; key = O=C(O)C(c1ccc2[nH]ccc2c1)N1CCN(c2cnccn2)CC1 (centres undefined)
-3.87

Value lookup for cytotoxicity at 70.5 h; key = `Cc1cnc(NCCc2c[nH]cn2)nc1-c1ccnn1C`
-11.6

Value lookup for cytotoxicity at 70.5 h; key = Cc1nc(CN2CCCC(N(C)c3cnc4ccccc4n3)C2)no1 (centres undefined)
20.5

Value lookup for cytotoxicity at 70.5 h; key = `CC(=O)CSc1nc2c(cnn2CCO)c(=O)[nH]1`
21.3

Value lookup for cytotoxicity at 70.5 h; key = Cc1cc(=O)[nH]c(SCC(=O)N(C)CC2Cc3ccccc3CN2C)n1 (centres undefined)
-6.08

Value lookup for cytotoxicity at 70.5 h; key = Cc1csc(CNC(=O)NCC(O)c2ccc(F)c(F)c2)n1 (centres undefined)
10.8

Value lookup for cytotoxicity at 70.5 h; key = Cc1ccc(-c2ccccc2CC2(C(=O)NC(C)C)CCCNC2)cc1 (centres undefined)
-3.27

Value lookup for cytotoxicity at 70.5 h; key = CCn1c(C2CCCN(Cc3ccnc4ccccc34)C2)nn(C)c1=O (centres undefined)
-7.68

Value lookup for cytotoxicity at 70.5 h; key = `CCCc1nnc(N2CC[C@](C)(O)[C@H](C)C2)s1`
8.74

Value lookup for cytotoxicity at 70.5 h; key = `CCCC(=O)Nc1sc(C(=O)OCC)c(C)c1C#N`
-2.39

Value lookup for cytotoxicity at 70.5 h; key = Cc1ccc(C(=O)N2CCC3(CC2)NC(=O)CC3c2ccccc2)cn1 (centres undefined)
5.79

Value lookup for cytotoxicity at 70.5 h; key = `CC(=O)NCC(=O)N1CCn2cc(CN3CCCCC3)nc2C1`
-1.68

Value lookup for cytotoxicity at 70.5 h; key = COc1ccc(CC(=O)N2CCCC2c2nc(C)c(C)c(O)n2)cc1 (centres undefined)
-2.14

Value lookup for cytotoxicity at 70.5 h; key = CN1C(=O)CCCC12CCCN(C(=O)c1cccc(C(F)(F)F)c1)C2 (centres undefined)
-6.35

Value lookup for cytotoxicity at 70.5 h; key = `Cc1cc(C(=O)N(C)S(C)(=O)=O)ccc1F`
11.2

Value lookup for cytotoxicity at 70.5 h; key = CN(Cc1ccccc1)c1cnn(CC2CCCCO2)c(=O)c1 (centres undefined)
-4.54
